# Experiment Notes: Cytotoxicity against human MCF-10A cells assessed as inhibition of cell proliferation incubated for 72 hrs by CCK8 assay
# Format: toxicity, cell-based
Exercise: state measured IC50 at 72 h for each of the compounds provided.
Report the figure in µM without appending any unit label.

Challenge: Tell me the measured IC50 at 72 h of CCN(c1ccc(OC)cc1)S(=O)(=O)C1CC2OC1C(c1ccc(NC(=O)CCCCCCC[Se]C#N)cc1)=C2c1ccc(O)cc1 (configuration not stated) , please.
Response given: 29.8

Challenge: Tell me the measured IC50 at 72 h of COc1ccc(N(CC(F)(F)F)S(=O)(=O)C2CC3OC2C(c2ccc(O)cc2)=C3c2ccc(O)cc2)cc1 (configuration not stated) , please.
Response given: 20.4

Challenge: Tell me the measured IC50 at 72 h of CCN(c1cccc(F)c1)S(=O)(=O)C1CC2OC1C(c1ccc(NC(=O)CCCCC[Se]C#N)cc1)=C2c1ccc(O)cc1 (configuration not stated) , please.
Response given: 11

Challenge: Tell me the measured IC50 at 72 h of COc1ccc(N(CC(F)(F)F)S(=O)(=O)C2CC3OC2C(c2ccc(NC(=O)CCCCC[Se]C#N)cc2)=C3c2ccc(O)cc2)cc1 (configuration not stated) , please.
Response given: 36.7

Challenge: Tell me the measured IC50 at 72 h of Cc1ccccc1OS(=O)(=O)C1CC2OC1C(c1ccc(NC(=O)CCCCC[Se]C#N)cc1)=C2c1ccc(O)cc1 (configuration not stated) , please.
Response given: 10.2

====

# Target Of Assay: Estrogen receptor (Homo sapiens) (UniProt P03372)
# Sequence (P03372 whole entry): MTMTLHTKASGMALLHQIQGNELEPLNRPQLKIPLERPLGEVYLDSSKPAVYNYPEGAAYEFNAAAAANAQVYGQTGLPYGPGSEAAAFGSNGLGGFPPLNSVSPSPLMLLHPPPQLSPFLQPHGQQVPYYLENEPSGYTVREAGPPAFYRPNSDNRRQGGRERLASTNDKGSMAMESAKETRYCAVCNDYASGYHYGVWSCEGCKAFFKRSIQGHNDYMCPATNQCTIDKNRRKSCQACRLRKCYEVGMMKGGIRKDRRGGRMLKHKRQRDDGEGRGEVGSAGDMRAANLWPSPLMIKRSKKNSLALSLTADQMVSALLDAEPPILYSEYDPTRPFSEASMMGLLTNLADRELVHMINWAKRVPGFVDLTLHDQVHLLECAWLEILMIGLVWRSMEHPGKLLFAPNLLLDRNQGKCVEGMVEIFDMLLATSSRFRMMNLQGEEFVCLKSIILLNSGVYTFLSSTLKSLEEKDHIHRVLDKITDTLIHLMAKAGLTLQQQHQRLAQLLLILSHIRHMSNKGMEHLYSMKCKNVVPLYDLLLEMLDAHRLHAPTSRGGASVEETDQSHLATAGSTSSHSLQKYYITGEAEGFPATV
# Experiment Notes: Binding affinity to human ERalpha assessed as relative binding affinity incubated under vibration for 1 min followed by 2 hrs incubation under dark condition by fluorescence polarization assay relative to estradiol
# Test Context: time 121.0 min
Rule: RBA below 6% gives 1.0. Equal to or above 6% gives 0.0.

Challenge: Does this compound meet the criterion RBA < 6%? CCN(c1ccccc1OC)S(=O)(=O)C1CC2OC1C(c1ccc(NC(=O)CCCCC[Se]C#N)cc1)=C2c1ccc(O)cc1 (centres undefined)
Response given: 1.0

Challenge: Does this compound meet the criterion RBA < 6%? N#C[Se]CCCCCCOc1ccc(OS(=O)(=O)C2CC3OC2C(c2ccc(O)cc2)=C3c2ccc(O)cc2)cc1 (centres undefined)
Response given: 0.0

Challenge: Does this compound meet the criterion RBA < 6%? N#C[Se]CCCCCC(=O)Nc1ccc(C2=C(c3ccc(O)cc3)C3CC(S(=O)(=O)Oc4ccccc4Cl)C2O3)cc1 (centres undefined)
Response given: 0.0

Challenge: Does this compound meet the criterion RBA < 6%? Cc1ccc(OS(=O)(=O)C2CC3OC2C(c2ccc(NC(=O)CCCCC[Se]C#N)cc2)=C3c2ccc(O)cc2)cc1 (centres undefined)
Response given: 1.0

Challenge: Does this compound meet the criterion RBA < 6%? N#C[Se]CCCCCC(=O)Nc1ccc(C2=C(c3ccc(O)cc3)C3CC(S(=O)(=O)Oc4ccccc4C(F)(F)F)C2O3)cc1 (centres undefined)
Response given: 0.0

Challenge: Does this compound meet the criterion RBA < 6%? CCN(c1ccc(Cl)cc1)S(=O)(=O)C1CC2OC1C(c1ccc(NC(=O)CCCCC[Se]C#N)cc1)=C2c1ccc(O)cc1 (centres undefined)
Response given: 1.0

Challenge: Does this compound meet the criterion RBA < 6%? CCN(c1ccc(OC)cc1)S(=O)(=O)C1CC2OC1C(c1ccc(NC(=O)CCCCC[Se]C#N)cc1)=C2c1ccc(O)cc1 (centres undefined)
Response given: 0.0

Challenge: Does this compound meet the criterion RBA < 6%? CCN(c1cccc(Cl)c1)S(=O)(=O)C1CC2OC1C(c1ccc(NC(=O)CCCCC[Se]C#N)cc1)=C2c1ccc(O)cc1 (centres undefined)
Response given: 1.0

Challenge: Does this compound meet the criterion RBA < 6%? N#C[Se]CCCCCC(=O)Nc1ccc(C2=C(c3ccc(O)cc3)C3CC(S(=O)(=O)N(CC(F)(F)F)c4ccccc4)C2O3)cc1 (centres undefined)
Response given: 1.0

====

# Species: Homo sapiens
# Experiment Notes: Selectivity ratio of relative binding affinity for human ERalpha to relative binding affinity to human ERbeta
Exercise: state measured Selectivity ratio for each of the compounds provided.
Please respond with just the number, no unit label.

Challenge: Tell me the measured Selectivity ratio of N#C[Se]CCCCCC(=O)Nc1ccc(C2=C(c3ccc(O)cc3)C3CC(S(=O)(=O)Oc4cccc(Br)c4)C2O3)cc1 (stereo not drawn) , please.
Response given: 1.9

Challenge: Tell me the measured Selectivity ratio of N#C[Se]CCCCCC(=O)Nc1ccc(C2=C(c3ccc(O)cc3)C3CC(S(=O)(=O)Oc4cccc(C(F)(F)F)c4)C2O3)cc1 (stereo not drawn) , please.
Response given: 0.57

Challenge: Tell me the measured Selectivity ratio of N#C[Se]CCCCCC(=O)Nc1ccc(C2=C(c3ccc(O)cc3)C3CC(S(=O)(=O)N(CC(F)(F)F)c4cccc(F)c4)C2O3)cc1 (stereo not drawn) , please.
Response given: 46.4

====

# Experiment Notes: Cytotoxicity against human MCF-10A cells assessed as inhibition of cell proliferation incubated for 72 hrs by CCK8 assay
# Assay type: toxicity, cell-based
Exercise: state measured IC50 at 72 h for each of the compounds provided.

Challenge: Tell me the measured IC50 at 72 h of C[C@]12CC[C@@H]3c4ccc(O)cc4C[C@@H](CCCCCCCCC[S+]([O-])CCCC(F)(F)C(F)(F)F)[C@H]3[C@@H]1CC[C@@H]2O (stereo partly drawn) , please.
Response given: > 100 µM

Challenge: Tell me the measured IC50 at 72 h of COc1ccc(N(CC(F)(F)F)S(=O)(=O)C2CC3OC2C(c2ccc(NC(=O)CCC[Se]C#N)cc2)=C3c2ccc(O)cc2)cc1 (stereo not drawn) , please.
Response given: > 100 µM

Challenge: Tell me the measured IC50 at 72 h of O=S(=O)(Oc1ccccc1)C1CC2OC1C(c1ccc(O)cc1)=C2c1ccc(O)cc1 (stereo not drawn) , please.
Response given: > 60 µM

====

# System: T47D
# Experiment Notes: Antiproliferative activity against human T47D cells harboring ERalpha D538G mutant assessed as inhibition of cell proliferation incubated for 72 hrs by CCK8 assay
# Assay type: functional, cell-based
Exercise: state measured pIC50 for each of the molecules provided.
Reminder that pIC50 is minus the log10 of a molar concentration.

Challenge: Tell me the measured pIC50 of N#C[Se]CCCCCC(=O)Nc1ccc(C2=C(c3ccc(O)cc3)C3CC(S(=O)(=O)N(CC(F)(F)F)c4cccc(Cl)c4)C2O3)cc1 (centres undefined) , please.
Response given: 5.47

Challenge: Tell me the measured pIC50 of N#C[Se]CCCCCC(=O)Nc1ccc(C2=C(c3ccc(O)cc3)C3CC(S(=O)(=O)N(CC(F)(F)F)c4cccc(F)c4)C2O3)cc1 (centres undefined) , please.
Response given: 5.54

Challenge: Tell me the measured pIC50 of CCN(c1cccc(Cl)c1)S(=O)(=O)C1CC2OC1C(c1ccc(NC(=O)CCCCC[Se]C#N)cc1)=C2c1ccc(O)cc1 (centres undefined) , please.
Response given: 5.72

Challenge: Tell me the measured pIC50 of COc1cccc(N(CC(F)(F)F)S(=O)(=O)C2CC3OC2C(c2ccc(NC(=O)CCCCC[Se]C#N)cc2)=C3c2ccc(O)cc2)c1 (centres undefined) , please.
Response given: 5.29

Challenge: Tell me the measured pIC50 of N#C[Se]CCCCCC(=O)Nc1ccc(C2=C(c3ccc(O)cc3)C3CC(S(=O)(=O)N(CC(F)(F)F)c4ccccc4F)C2O3)cc1 (centres undefined) , please.
Response given: 5.78

Challenge: Tell me the measured pIC50 of COc1ccc(N(CC(F)(F)F)S(=O)(=O)C2CC3OC2C(c2ccc(O)cc2)=C3c2ccc(O)cc2)cc1 (centres undefined) , please.
Response given: 5.14

Challenge: Tell me the measured pIC50 of `CC/C(=C(\c1ccc(O)cc1)c1ccc(OCCN(C)C)cc1)c1ccccc1` , please.
Response given: 5.04

Challenge: Tell me the measured pIC50 of CCN(c1ccccc1Cl)S(=O)(=O)C1CC2OC1C(c1ccc(NC(=O)CCCCC[Se]C#N)cc1)=C2c1ccc(O)cc1 (centres undefined) , please.
Response given: 5.63

====

# Target Of Assay: Estrogen receptor beta (Homo sapiens)
# Experiment Notes: Binding affinity to human ERbeta assessed as relative binding affinity incubated under vibration for 1 min followed by 2 hrs incubation under dark condition by fluorescence polarization assay relative to estradiol
# Test Context: time 121.0 min
Exercise: state measured RBA for each of the compounds provided.
Report the figure in % without appending any unit label.

Challenge: Tell me the measured RBA of N#C[Se]CCCCCC(=O)Nc1ccc(C2=C(c3ccc(O)cc3)C3CC(S(=O)(=O)Oc4cccc(Cl)c4)C2O3)cc1 (stereo not drawn) , please.
Response given: 0.1

Challenge: Tell me the measured RBA of N#C[Se]CCCCCC(=O)Nc1ccc(C2=C(c3ccc(O)cc3)C3CC(S(=O)(=O)N(CC(F)(F)F)c4cccc(F)c4)C2O3)cc1 (stereo not drawn) , please.
Response given: 0.1

Challenge: Tell me the measured RBA of N#C[Se]CCCCCC(=O)Nc1ccc(C2=C(c3ccc(O)cc3)C3CC(S(=O)(=O)N(CC(F)(F)F)c4ccccc4F)C2O3)cc1 (stereo not drawn) , please.
Response given: 0.1

Where these numbers come from: ChEMBL document CHEMBL5360672
